These data points were gathered from PubChem BioAssay.

Biological target: Potassium voltage-gated channel subfamily KQT member 1 (Homo sapiens)
Experiment: KCNQ1 potassium channel potentiators, confirmation, FluxOR thallium flux, CHO cells, duplicates (AID 493007)
Settings: KCNQ1 cell line, FluxOR thallium flux fluorescence, at 10 µM, % of reference activator effect, buffer zero
The source made the active and inactive calls.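 How the source made its calls: active means potentiation averaged over duplicate wells exceeding buffer-only control mean by more than 3 SD; inactive means the rest.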
Labels: True (active), False (inactive)

{"COMPOUND": "Cc1[nH]c(=S)c(C#N)c(C)c1Cc1ccc(Cl)cc1Cl", "ASSIGNED_CATEGORY": "False"}
{"COMPOUND": "Cc1ccc(O)c(NC(=S)NC(=O)Cc2ccc(Cl)cc2)c1", "ASSIGNED_CATEGORY": "True"}
{"COMPOUND": "C=CCn1c(SCN2C(=O)c3ccccc3C2=O)nc2ccc(Cl)cc2c1=O", "ASSIGNED_CATEGORY": "False"}
{"COMPOUND": "COc1ccc(NC(=O)C(=O)NNC(=O)c2ccc(Cl)cc2Cl)cc1", "ASSIGNED_CATEGORY": "True"}
{"COMPOUND": "CCn1c(O)c(N=NC(=S)NCC2CCCO2)c2ccccc21 (stereo unspecified)", "ASSIGNED_CATEGORY": "False"}
{"COMPOUND": "Cc1cccc(Cn2c(O)c(N=NC(=S)Nc3ccccc3F)c3ccccc32)c1", "ASSIGNED_CATEGORY": "True"}
{"COMPOUND": "CN1CCN(S(=O)(=O)c2cccc(C(=O)Nc3cc(Cl)ccc3N3CCOCC3)c2)CC1", "ASSIGNED_CATEGORY": "False"}
{"COMPOUND": "COc1ccc(C(=O)c2ccc(OC)c(N)c2)cc1N", "ASSIGNED_CATEGORY": "True"}
{"COMPOUND": "Cc1cccc(/C=N/n2c(COc3ccccc3)n[nH]c2=S)c1", "ASSIGNED_CATEGORY": "True"}
{"COMPOUND": "S=C1N(c2ccccc2)C(c2ccccc2)N2CCCN12 (stereo unspecified)", "ASSIGNED_CATEGORY": "False"}
{"COMPOUND": "O=C(/C=C/c1ccco1)Nc1scc(-c2ccccc2)c1C(=O)O", "ASSIGNED_CATEGORY": "False"}
